MEASUREMENT NOTES: Clinical Pharmacology Study: single 200 mg dose PK, all 3 cohorts
STUDY CONDITIONS: human, in vivo, oral, fed, read-out: geometric mean T1/2 (converted)
OBSERVED PROPERTY: half-life

input: Need half-life, item O=C1CC[C@H](N2Cc3cc(N4CCN(CC5CCN(c6ccc([C@@H]7c8ccc(O)cc8CC[C@@H]7c7ccccc7)cc6)CC5)CC4)ccc3C2=O)C(=O)N1
output: ~40 h

----------
MEASUREMENT NOTES: Plasma protein binding, monkey
Format: in vitro ADME
STUDY CONDITIONS: read-out: free fraction
OBSERVED PROPERTY: fraction unbound at 1 μM
Please reply with the number alone, leaving off any unit.

input: Requested read-out: fraction unbound at 1 μM. Entry: O=C1CC[C@H](N2Cc3cc(N4CCN(CC5CCN(c6ccc([C@@H]7c8ccc(O)cc8CC[C@@H]7c7ccccc7)cc6)CC5)CC4)ccc3C2=O)C(=O)N1 [Compound A]
output: 0.04
